# credit: patent US9868748B2

Biological target: full-length RORγt in Jurkat cells (Homo sapiens (Human), UniProt P51449)
Sequence (P51449 other isoform, or with tags, fused parts or gaps): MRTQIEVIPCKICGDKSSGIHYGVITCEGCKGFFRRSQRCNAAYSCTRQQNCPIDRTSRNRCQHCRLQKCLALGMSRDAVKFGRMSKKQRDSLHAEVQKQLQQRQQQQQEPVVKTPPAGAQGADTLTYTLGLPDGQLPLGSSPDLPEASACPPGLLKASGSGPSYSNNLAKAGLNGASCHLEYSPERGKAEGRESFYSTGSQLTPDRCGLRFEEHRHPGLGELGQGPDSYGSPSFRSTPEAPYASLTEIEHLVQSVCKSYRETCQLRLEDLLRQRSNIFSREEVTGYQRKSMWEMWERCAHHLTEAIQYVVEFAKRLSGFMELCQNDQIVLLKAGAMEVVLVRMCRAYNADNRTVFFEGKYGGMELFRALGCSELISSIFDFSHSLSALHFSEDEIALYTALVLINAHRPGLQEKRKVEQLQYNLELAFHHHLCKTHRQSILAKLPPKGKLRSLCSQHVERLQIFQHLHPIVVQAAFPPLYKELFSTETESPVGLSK
Test: RORγt 5xRORE Assay in Jurkat Cells (Assay 2)
Format: cell-based
Settings: Nanoluc luciferase reporter, 16-18 hrs, Table 9, read-out: RORγt5X IC50 Range*
Overview of recorded IC50 for various compounds

# count of solved cases: 2
{"columns": ["compound", "reported value"],
 "data": [
  ["CCS(=O)(=O)c1ccc(CC(=O)Nc2nc3c(s2)CN([C@H](C)Cc2ccc(Cl)cc2)[C@H]3C(C)C)cc1 (single isomer, unassigned)", "> 1 µM"],
  ["CCS(=O)(=O)c1ccc(CC(=O)Nc2nc3c(s2)CN(c2ncc(C(C)=O)c(C(F)(F)F)n2)[C@H]3C(C)C)cc1", "> 1 µM"]
]}

Here is another compound to look at.
Name the reported IC50 value associated with the compound CCS(=O)(=O)c1ccc(CC(=O)Nc2nc3c(s2)CN(C[C@H]2CC[C@H](C(F)(F)F)N(C4CC4)C2)[C@H]3C(C)C)cc1 (single isomer, unassigned) > 1 µM

###

Target: full-length RORγt in Jurkat cells (Homo sapiens (Human))
Experiment: RORγt 5xRORE Assay in Jurkat Cells (Assay 2)
Assay type: cell-based
Conditions: Nanoluc luciferase reporter, 16-18 hrs, Table 8, read-out: RORγt5X IC50 Range*
recorded endpoint: IC50

# count of solved cases: 3
{"columns": ["compound", "recorded endpoint", "reported value"],
 "data": [
  ["CCS(=O)(=O)c1ccc(CC(=O)Nc2nc3c(s2)CN(C[C@@H]2CC[C@@H](C(F)(F)F)N(C)C2)[C@H]3C(C)C)cc1 [I-A29]", "IC50", "< 100 nM"],
  ["CC(C)[C@H]1c2nc(NC(=O)Cc3ccc(S(C)(=O)=O)cc3)sc2CN1Cc1ccc(C#N)cc1Cl [I-B16]", "IC50", "< 100 nM"],
  ["CCS(=O)(=O)c1ccc(CC(=O)Nc2nc3c(s2)CN(C[C@H]2CC[C@H](OC(F)F)CC2)[C@H]3C(C)C)cc1 [I-A28]", "IC50", "< 100 nM"]
]}

Name the reported IC50 value associated with the compound CCS(=O)(=O)c1ccc(CC(=O)Nc2nc3c(s2)CN(Cc2ccc(-c4nnnn4C)cc2)[C@H]3C(C)C)cc1 [I-A40] < 100 nM

Name the reported IC50 value associated with the compound CC(C)[C@H]1c2nc(NC(=O)Cc3ccc(S(C)(=O)=O)cc3)sc2CN1[C@@H](C)c1ccc(C#N)cc1Cl [I-B10] < 100 nM

Name the reported IC50 value associated with the compound CCS(=O)(=O)c1ccc(CC(=O)Nc2nc3c(s2)CN(Cc2ccc(C#N)c(C)n2)[C@H]3C(C)C)cc1 [I-A50] < 100 nM

Name the reported IC50 value associated with the compound CC(C)[C@H]1c2nc(NC(=O)Cc3ccc(S(C)(=O)=O)cc3)sc2CN1Cc1ccc(-c2nnn(C)n2)cc1 [I-B9] < 100 nM

###

Molecular target: recombinant RORγ Ligand Binding Domain (LBD) protein (Homo sapiens (Human), UniProt P51449)
Sequence (P51449 269-508): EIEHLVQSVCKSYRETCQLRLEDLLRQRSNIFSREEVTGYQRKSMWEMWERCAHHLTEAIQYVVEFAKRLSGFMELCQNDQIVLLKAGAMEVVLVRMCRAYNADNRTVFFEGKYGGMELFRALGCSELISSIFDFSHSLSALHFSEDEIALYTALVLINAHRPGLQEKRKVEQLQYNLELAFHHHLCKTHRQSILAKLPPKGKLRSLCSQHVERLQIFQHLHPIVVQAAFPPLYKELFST
Experiment: Radio-Ligand RORγ Binding Assay (Assay 1)
Conditions: competition with 25-hydroxy [26,27-3H]-cholesterol, SPA; Table 9; read-out: RORγ Binding Ki Range*
recorded endpoint: Ki

{"columns": ["compound", "recorded endpoint", "reported value"],
 "data": [
  ["CCS(=O)(=O)c1ccc(CNC(=O)c2nc3c(s2)CN(Cc2ccc(-c4nnn[nH]4)cc2)[C@H]3C(C)C)cc1", "Ki", "0.1 to 1 µM"]
]}

Name the reported Ki value associated with the compound CCS(=O)(=O)c1ccc(CC(=O)Nc2nc3c(s2)CN(C[C@H]2CC[C@@H](C(F)(F)F)N(C)C2)C3C(C)C)cc1 (single isomer, unassigned) < 0.1 µM

Name the reported Ki value associated with the compound CC[C@H]1c2nc(NC(=O)Cc3ccc(S(=O)(=O)C(F)F)cc3)sc2CN1Cc1ccc(Cl)cc1 < 0.1 µM

Name the reported Ki value associated with the compound CCS(=O)(=O)c1ccc(CC(=O)Nc2nc3c(s2)CN(c2ncc(Cl)c(C)n2)[C@H]3C(C)C)cc1 < 0.1 µM

Name the reported Ki value associated with the compound CCS(=O)(=O)c1cnc(CNC(=O)c2nc3c(s2)CN(Cc2ccc(C#N)cc2)[C@H]3C(C)C)nc1 < 0.1 µM

Name the reported Ki value associated with the compound COc1cc(CN2Cc3sc(NC(=O)Cc4ccc(C#N)cc4)nc3[C@@H]2C(C)C)ccc1C#N < 0.1 µM

Name the reported Ki value associated with the compound CCS(=O)(=O)c1ccc(CC(=O)Nc2nc3c(s2)CN(c2ncc(C(F)(F)F)cn2)[C@H]3C(C)C)cc1 < 0.1 µM

Name the reported Ki value associated with the compound CCS(=O)(=O)c1ccc(CC(=O)Nc2nc3c(s2)CN(c2nc(C)cc(C(F)(F)F)n2)[C@H]3C(C)C)cc1 < 0.1 µM

Name the reported Ki value associated with the compound Cc1cc(C(F)(F)F)nc(N2Cc3sc(Cc4ccc(C#N)cc4C)nc3[C@H]2C(C)C)n1 > 1 µM

Name the reported Ki value associated with the compound CCS(=O)(=O)c1ccc(CC(=O)Nc2nc3c(s2)CN(C[C@@H]2CC[C@H](C(F)(F)F)N(C)C2)[C@H]3C(C)C)cc1 (relative stereo) < 0.1 µM

Name the reported Ki value associated with the compound CCS(=O)(=O)c1ccc(CC(=O)Nc2nc3c(s2)CN(c2ncc(-c4ccc(=O)n(C)c4)cn2)[C@H]3C(C)C)cc1 > 1 µM

Name the reported Ki value associated with the compound CC(C)[C@H]1c2nc(NC(=O)Cc3ccc(S(C)(=O)=O)cc3)sc2CN1Cc1ccc(-c2nnn[nH]2)cc1 0.1 to 1 µM

###

Overview of recorded pIC50 for various compounds
Target: full-length RORγt in Jurkat cells (Homo sapiens (Human), UniProt P51449)
Assay: RORγt 5xRORE Assay in Jurkat Cells (Assay 2)
Assay type: cell-based
Settings: Nanoluc luciferase reporter, 16-18 hrs, Table 9, read-out: RORγt5X IC50 Range*
pIC50: −log10 of the molar value.

# count of solved cases: 5
{"columns": ["compound", "recorded endpoint", "reported value"],
 "data": [
  ["CC(C)[C@@H]1c2nc(NC(=O)Cc3ccc(S(C)(=O)=O)cc3)sc2CN1Cc1cccc(C#N)c1", "pIC50", "< 6.00"],
  ["CCS(=O)(=O)c1ccc(CC(=O)Nc2nc3c(s2)CN(CC2CCOCC2)[C@H]3C(C)C)cc1", "pIC50", "< 6.00"],
  ["CC(C)[C@@H]1c2nc(NC(=O)Cc3ccc(S(C)(=O)=O)cc3)sc2CN1Cc1ccc(OC(F)F)cc1F", "pIC50", "6.00 to 7.00"],
  ["CCS(=O)(=O)c1ccc(CC(=O)Nc2nc3c(s2)CN(Cc2cnc(C)nc2)[C@H]3C(C)C)cc1", "pIC50", "6.00 to 7.00"],
  ["CCS(=O)(=O)c1ccc(CC(=O)Nc2nc3c(s2)CN([C@@H](C)c2ccccc2)[C@@H]3C(C)C)cc1 (single isomer, unassigned)", "pIC50", "< 6.00"]
]}

Name the reported pIC50 value associated with the compound CCS(=O)(=O)c1ccc(CNC(=O)c2nc3c(s2)CN(C[C@H]2CC[C@H](C(F)(F)F)CC2)[C@H]3C(C)C)nc1 6.00 to 7.00

Name the reported pIC50 value associated with the compound CC(C)[C@H]1c2nc(NC(=O)Cc3ccc(C(N)=O)cc3)sc2CN1Cc1ccc(Cl)cc1 6.00 to 7.00

###

Molecular target: recombinant RORγ Ligand Binding Domain (LBD) protein (Homo sapiens (Human), UniProt P51449)
Test: Radio-Ligand RORγ Binding Assay (Assay 1)
Conditions: competition with 25-hydroxy [26,27-3H]-cholesterol, SPA; Table 9; read-out: RORγ Binding Ki Range*
pKi: −log10 of the molar value.
Overview of recorded pKi for various compounds

# count of solved cases: 5
{"columns": ["compound", "reported value"],
 "data": [
  ["CCOC(=O)c1cnc(N2Cc3sc(NC(=O)Cc4ccc(S(=O)(=O)CC)cc4)nc3[C@]2(C)C(C)C)nc1C(F)(F)F", "> 7.00"],
  ["CC(C)Oc1ccc(CC(=O)Nc2nc3c(s2)CN(Cc2ccc(Cl)cc2)[C@H]3C(C)C)cc1", "6.00 to 7.00"],
  ["CCS(=O)(=O)c1ccc(CC(=O)Nc2nc3c(s2)CN(c2nccc(C(F)(F)F)n2)C3(C)C)cc1", "> 7.00"],
  ["CCS(=O)(=O)c1ccc(CC(=O)Nc2nc3c(s2)CN(Cc2ccc(C#N)cn2)[C@@H]3C(C)C)cc1", "6.00 to 7.00"],
  ["CC(C)[C@@H]1c2nc(NC(=O)Cc3ccc(S(C)(=O)=O)cc3)sc2CN1Cc1ccc(C(F)(F)F)cc1F", "6.00 to 7.00"]
]}

Name the reported pKi value associated with the compound CCS(=O)(=O)c1ccc(CNC(=O)c2nc3c(s2)CN(CC2CNCCO2)[C@H]3C(C)C)cc1 (stereo partly shown) < 6.00

Name the reported pKi value associated with the compound CCS(=O)(=O)c1ccc(CC(=O)Nc2nc3c(s2)CN(CC2CCOCC2)[C@H]3C(C)C)cc1 > 7.00

Name the reported pKi value associated with the compound CC(C)[C@@H]1c2nc(NC(=O)Cc3ccc(S(C)(=O)=O)cc3)sc2CN1Cc1ccc(C#N)cc1 6.00 to 7.00

Name the reported pKi value associated with the compound CC(C)[C@H]1c2nc(NC(=O)Cc3ccc(S(C)(=O)=O)cc3)sc2CN1Cc1ncc(Cl)cn1 6.00 to 7.00

Name the reported pKi value associated with the compound CC[C@@H]1c2nc(NC(=O)Cc3ccc(S(=O)(=O)CC)cc3)sc2CN1Cc1ccc2c(c1)OCO2 > 7.00

Name the reported pKi value associated with the compound CC(C)[C@H]1c2nc(NC(=O)Cc3ccc(F)cc3F)sc2CN1Cc1ccc(Cl)cc1 6.00 to 7.00

Name the reported pKi value associated with the compound CC[C@@H]1c2nc(NC(=O)Cc3ccc(S(C)(=O)=O)cc3)sc2CN1[C@@H](C)c1ccc(OC(F)(F)F)cc1 (single isomer, unassigned) 6.00 to 7.00
